Form field: growth (one value per entry).
Test system: CAKI-1 renal
Assay: NCI-60 one-dose screen, 48 h (100 = growth as untreated, 0 = no growth, -100 = all killed)
Details: 10 µM unless noted
The panel holds about 83,000 compounds, 20% with a hit somewhere; the sample as a whole holds those more often. The source made the active and inactive calls. Rule for the calls: active = growth percent below 10; inactive = the rest.

OCCN(CCO)c1ccc2ccccc2c1 | 97.3% (inactive)
O=C1N(Cc2ccccc2Cl)c2ccccc2C12NN=C(c1ccccc1)S2 (stereo unspecified) | 47.4% (inactive)

The recorded growth for `ClCc1c(Cl)c(Cl)c(Cl)c(CCl)c1Cl` is -76.4% (active)

Summary for this compound, `Cc1ccc(NC(=O)c2cc(NCc3cc(O)ccc3O)ccc2O)cc1` : growth is 107% (inactive)

----------
System: NCI-H322M lung
Experiment: NCI-60 one-dose screen, 48 h (100 = growth as untreated, 0 = no growth, -100 = all killed)
Settings: 10 µM unless noted
The panel holds about 83,000 compounds, 20% with a hit somewhere; the sample as a whole holds those more often. Calls of active or inactive are those of the source. How the source made its calls: active means growth percent below 10; inactive means the rest.
quantity name: growth

COc1cc(C2CC(=O)Nc3c2cnn3C)cc(OC)c1OC (stereo unspecified) | 100% (inactive)

The molecule listed as `Clc1cc(Cl)cc(-c2cnc3nonc3n2)c1` has a reported growth of 95.1% (inactive)

molecule COc1ccc(C(=O)OC2C(OC3C(O)COC(O[C@H]4C[C@H]5[C@@H]6CC=C7C[C@@H](O)CC[C@]7(C)[C@H]6CC[C@]5(C)[C@H]4[C@H](C)C(=O)CCC(C)C)C3OC(C)=O)OCC(O)C2O)cc1 (stereo partly specified) , growth observed: 36.9% (inactive)

----------
Tested on: NCI-H23 lung
Experiment: NCI-60 one-dose screen, 48 h (100 = growth as untreated, 0 = no growth, -100 = all killed)
Conditions: 10 µM unless noted
This is part of a sample that, as a whole, favours compounds with a hit. Of some 83,000 tested, about 20% had one in any assay.
Recorded measurements of growth, one per entry
State the answer as a number, implicitly in %.

Here's what some known entries look like.
O=C1Nc2ccc(Cl)cc2/C1=C\c1c(-c2ccc(F)cc2)nc2ccccn12 | -20.1
CC(=O)c1ccc(N2C(=O)c3ccc(Oc4ccccc4)cc3C2=O)cc1 | 101
O=C(c1ccccc1)c1cccc(C(Br)Br)c1 | 92.8
CCCCCCCCCCCCCCCCCC1=NCCN1CCO | 77.1
NC(=S)N1N=C(c2ccc(Cl)cc2)CC1c1cc2ccccc2[nH]c1=O (stereo unspecified) | 105

The compound listed as `CCOC(=O)c1cnc(SCC)nc1SC#N` has a reported growth of 94.6

growth in this record for `O=C(Nc1cccc(Cl)c1)Nc1ccccc1Cl` : 73.1

The recorded growth for `COC(=O)CSc1ccc(Cl)cc1` is 102

// field: growth; key: `O=C(CCCCCCN1CC(=O)N2[C@@H](c3ccc(Cl)c(Cl)c3)c3[nH]c4ccccc4c3C[C@H]2C1=O)NO` ; value = 54

# growth of `C[C@@H]1N=C(c2ccc3ccccc3c2)Nc2nc3ccccn3c2C1=O` = 46.1

Measured growth, `CS(=O)(=O)c1ccc(C(=O)N/N=C/c2ccc3c(c2)OCO3)cc1` : 96.9

----------
Tested on: T-47D breast
Assay: NCI-60 one-dose screen, 48 h
Settings: 10 µM unless noted
Compounds without any hit were thinned out: in the full panel of roughly 83,000, 20% have a hit. Active and inactive are the calls of the source. Rule for the calls: active = growth percent below 10; inactive = the rest.
Can you answer with just one of these options? Yes for active, No for inactive

Problem: Record lookup: outcome of this test for CC1=CC(=O)OC1C/C=C(\C)CCC1[C@@]2(C)CCC[C@@](C)(C(=O)O)C2CC[C@@]1(C)O (some centres undefined) ?
Solution: No

----------
Test system: PC-3 prostate
Assay: NCI-60 one-dose screen, 48 h (100 = growth as untreated, 0 = no growth, -100 = all killed)
Details: 10 µM unless noted
Compounds without any hit were thinned out: in the full panel of roughly 83,000, 20% have a hit.
Criterion: growth meeting or surpassing 20%. Met: condition met. Not met: condition not met.

Worked cases, answers included:
O=C(Nc1cccc(-n2ccc3c(NC(=O)c4ccccc4)nccc32)c1)c1ccc(N2CCOCC2)c(C(F)(F)F)c1 | condition met
CCN(CC)c1ccc(/C=N/NC(=O)c2ccc(S(C)(=O)=O)cc2)c(O)c1 | condition met
CCN1C(=O)N(CC)C2C1NN=c1s/c(=C\c3ccco3)c(=O)n12 (stereo not given) | condition not met

Problem: Quick check: does `CC(C)(C)c1ccc(C(=O)Nc2sc3cc(O)ccc3c2C(N)=O)cc1` have growth greater than or equal to 20%?
Solution: condition met

Problem: Is reported growth greater than or equal to 20% here: COc1cc(C2CC(c3ccc(Cl)cc3)=NN2C=O)ccc1Oc1ccnc2cc(Cl)ccc12 (stereo not given)
Solution: condition met

----------
System: MDA-MB-231 breast
Experiment: NCI-60 one-dose screen, 48 h (100 = growth as untreated, 0 = no growth, -100 = all killed)
Conditions: 10 µM unless noted
About 83,000 compounds went through this panel and 20% of them were active in at least one assay; those are over-represented in the sample as a whole.
Below is a list of entries, each paired with its recorded growth value.
Give just the number in %; leave the unit off.

Given item `CCC(=O)OCc1ccc(OC)cc1` , the value recorded as its growth is 101

molecule `CN1CCCN(CCNc2nccc(-c3c(-c4cccc(O)c4)nc4sccn34)n2)S1(=O)=O` , growth observed: 44.9

Data point: `CCOc1cc(/C=N\NC(=O)C[N+](C)(C)C)ccc1O` ; growth = 127

----------
Tested on: NCI-H522 lung
Assay: NCI-60 one-dose screen, 48 h (100 = growth as untreated, 0 = no growth, -100 = all killed)
Details: 10 µM unless noted
Protocol: Growth inhibition of the NCI-H522 human Non-Small Cell Lung tumor cell line is measured as a screen for anti-cancer activity. Cells are grown in 96 well plates and exposed to the test compound for 48 hours. Compounds are tested at a single concentration, which is 10^-5 M for most compounds. The reported endpoint is percent growth (GI% or GIPRCNT), where numbers from 0 - 100% represent growth inhibition, and numbers from -100% - 0 represent cell death. […]
This is part of a sample that, as a whole, favours compounds with a hit. Of some 83,000 tested, about 20% had one in any assay.
Field 'label' (enum: condition met / condition not met). Set to condition met when growth is strictly under 90%; else condition not met.

COc1ncnc2[nH]cc(CN3CCN(c4ccc(F)cc4)CC3)c12 | condition not met

Problem: # TODO verify growth < 90% strictly for this molecule: CCCCCCCCOC(=O)C(C)OC(=O)OCCOCCOC(=O)OC(C)C(=O)OCCCCCCCC (stereo not given)
Solution: condition not met

Problem: Just wondering, is growth of `COc1ccc2[nH]cc(C3(c4c[nH]c5ccc(OC)cc45)C(=O)Nc4ccc(F)cc43)c2c1` below 90%?
Solution: condition met

Problem: Strictly below 90% in growth? `COc1cccc(-c2cc(-c3cccs3)c(C#N)c(=O)[nH]2)c1`
Solution: condition not met

Problem: Is growth strictly under 90% for the entry `COc1cc(/C=C2\CN(C(=O)OC(C)(C)C)C/C(=C\c3ccc(O)c(OC)c3)C2=O)ccc1O` ?
Solution: condition met

Problem: Confirm or reject: growth of `CCOC(=O)c1cc(C(=O)OCC)c(C)nc1C` lies strictly below 90%
Solution: condition not met

Problem: Please state whether growth is below 90% for CN1C(=O)N(C)C2C1NN=c1s/c(=C\c3ccsc3)c(=O)n12 (stereo not given)
Solution: condition met

Problem: API: query returns whether the molecule falls strictly under 90% in growth. Query: O=C(O)C(CCc1ccccc1)NCc1ccccc1 (stereo not given)
Solution: condition met

Problem: Does the reported growth of the following molecule sit strictly below 90%? `COc1cc(/C=N/NC(=O)Cn2c(-c3ccc(C)o3)nc3ccccc32)ccc1OCc1ccccc1`
Solution: condition met

Problem: # strict comparison: is reported growth < 90%? input = CN1C(=O)C(C2=NNC(c3ccccc3C(=O)O)C2)C(=O)N(C)C1=O (stereo not given)
Solution: condition met

----------
Tested on: SK-MEL-5 melanoma
Assay: NCI-60 one-dose screen, 48 h
Conditions: 10 µM unless noted
Description: Growth inhibition of the SK-MEL-5 human tumor cell line is measured as a screen for anti-cancer activity. Cells are grown in 96 well plates and exposed to the test compound for 48 hours. Compounds are tested at a single concentration, which is 10^-5 M for most compounds. The reported endpoint is percent growth (GI% or GIPRCNT), where numbers from 0 - 100% represent growth inhibition, and numbers from -100% - 0 represent cell death. For example, a value of 40 represents 60% growth inhibition. […]
This is part of a sample that, as a whole, favours compounds with a hit. Of some 83,000 tested, about 20% had one in any assay. Calls of active or inactive are those of the source. How the source made its calls: active means growth percent below 10; inactive means the rest.
A correct response names exactly one class from yes = active, no = inactive

COc1ccc2[nH]cc(C3(c4c[nH]c5ccc(OC)cc45)C(=O)Nc4ccc(F)cc43)c2c1 | no

Problem: What did the test return for `C[C@H](NC(=O)c1snnc1C1CC1)c1c(F)cccc1Cl` ?
Solution: no

Problem: Hi, do you know how ClC1(Cl)C2CCCCCCC21 (stereo not given) came out in this test?
Solution: no

Problem: Just curious, what result did COc1ccc(C(=O)OC2C(OC3C(O)COC(O[C@H]4C[C@H]5[C@@H]6CC=C7C[C@@H](O)CC[C@]7(C)[C@H]6CC[C@]5(C)[C@H]4[C@H](C)C(=O)CCC(C)C)C3OC(C)=O)OCC(O)C2O)cc1 (stereo not given in full) get here?
Solution: yes

Problem: Could you please tell me the result logged for `O=[N+]([O-])c1ccc(Sc2nc(Cl)nc(NC3CCCC3)n2)cc1` in this assay?
Solution: yes

Problem: Identify the outcome logged in this assay for the molecule shown: `COc1ccc(N=C2CSc3nnc(-c4cc(F)c(Cl)cc4Cl)n3N2)cc1`
Solution: yes

Problem: What is the recorded call for this molecule in the test? `CCc1onc(-c2ccc(OC)cc2)c1-c1ccccc1OCCN(CC)CC`
Solution: no

Problem: Field: outcome | Entry: `COc1nccc2c(Sc3ccccc3)nc(N)nc12`
Solution: no

Problem: // return assay outcome for `Cc1ccc(NC(=O)c2cc(NCc3cc(O)ccc3O)ccc2O)cc1`
Solution: no

Problem: Tell me the assay call for `c1csc(-c2cnc3nonc3n2)c1` please.
Solution: no
